- assay-comment: chemical genetic growth profiling, strain panel (AID 1159580);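 further: tested at 20 µM; growth read once vehicle control cultures reached saturation at 30 °C; lower values mean less growth of the strain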
- study-conditions: S. cerevisiae deletion strains, growth OD, locus YMR219W, strain ESC1
Among all 5,500 compounds or so, about 2,000 (36%) were called active. Inconclusive results (about 18%) are left out. No stated cut-off is given here; in the data, active means normalized growth mostly below about 0.91 (no sharp cut-off); inconclusive means no clear call, values can overlap the other calls; inactive means mostly above about 0.92. The list shows a part of the results.
Answer with one of the outcomes T for active, F for inactive

compound	label-class
O=C(Cc1ccccc1)NC1CCN(S(=O)(=O)c2ccc(Cl)cc2)CC1	F

Query :: Outcome? `O=C(NNC(=O)c1ccc[nH]1)Nc1cc(Cl)cc(Cl)c1`
Result :: F

Query :: Outcome? `CCOC(=O)c1cnc(SCC(=O)c2ccc(Cl)cc2Cl)[nH]1`
Result :: F

Query :: Outcome? `Cc1cc(Oc2c([N+](=O)[O-])cc(C(F)(F)F)cc2[N+](=O)[O-])c2c(Cl)ccc(C)c2n1`
Result :: T

Query :: Outcome? `O=[N+]([O-])c1cc(C(F)(F)F)ccc1Oc1cc(C(F)(F)F)cc(C(F)(F)F)c1`
Result :: F

Query :: Outcome? O=C(NNC(=S)NC1CC2C=CC1C2)c1cccnc1 (centres undefined)
Result :: F

Query :: Outcome? `CCOC(=O)c1ccc(NC(=S)N2CCOCC2)cc1`
Result :: F

Query :: Outcome? `Nc1c(Cl)cc(C(=O)Nc2cc(Cl)cc(Cl)c2)cc1Cl`
Result :: F
